Known IC50 of a selection of compounds
target: CBL-B (Homo sapiens); construct: GST; test: CBL-B TR-FRET IC50 screening (E1/E2 ubiquitination, Biotin-Ubiquitin, Anti GST-Tb donor / Streptavidin-d2 acceptor); type: biochemical; conditions: second part of Table 2 (head 'Patent Cmpd No / Updated Activity'); same CBL-B TR-FRET IC50 bins A-F; read-out: Updated Activity

Provide value of IC50 for this record tested with CBL-B (Homo sapiens): C[C@@H](c1cc(C(F)(F)F)c2cn(-c3cccc([C@H](c4nncn4C)C4CCC4)c3)c(=O)n2c1)N(C)Cc1cncs1 [Compound 610_P2] < 100 nM

Please give the result for C[C@@H]1CN(Cc2cc(C(F)(F)F)c3cn(-c4cccc(C5(c6nncn6C)CC6(CC6)C5)c4)c(=O)n3c2)CCC1(F)F (single isomer, unassigned) [Compound 464] too. < 100 nM

---
Provide value of IC50 for this record tested with CBL-B (Homo sapiens): C[C@H]1CCCN(Cc2cc(C(F)(F)F)c3cn(-c4cccc([C@@H](c5n[nH]cc5C#N)C5CCC5)c4)c(=O)n3c2)C1 [Compound 566] > 10000 nM

* * *

target: CBL-B (Homo sapiens, UniProt Q13191); construct: GST; assay: CBL-B TR-FRET IC50 screening (E1/E2 ubiquitination, Biotin-Ubiquitin, Anti GST-Tb donor / Streptavidin-d2 acceptor); type: biochemical; conditions: CBL-B 10 nM final; 11-point titration from 100 uM; binned A-F; read-out: CBL-B TR-FRET activity IC50
Sequence (Q13191 whole entry): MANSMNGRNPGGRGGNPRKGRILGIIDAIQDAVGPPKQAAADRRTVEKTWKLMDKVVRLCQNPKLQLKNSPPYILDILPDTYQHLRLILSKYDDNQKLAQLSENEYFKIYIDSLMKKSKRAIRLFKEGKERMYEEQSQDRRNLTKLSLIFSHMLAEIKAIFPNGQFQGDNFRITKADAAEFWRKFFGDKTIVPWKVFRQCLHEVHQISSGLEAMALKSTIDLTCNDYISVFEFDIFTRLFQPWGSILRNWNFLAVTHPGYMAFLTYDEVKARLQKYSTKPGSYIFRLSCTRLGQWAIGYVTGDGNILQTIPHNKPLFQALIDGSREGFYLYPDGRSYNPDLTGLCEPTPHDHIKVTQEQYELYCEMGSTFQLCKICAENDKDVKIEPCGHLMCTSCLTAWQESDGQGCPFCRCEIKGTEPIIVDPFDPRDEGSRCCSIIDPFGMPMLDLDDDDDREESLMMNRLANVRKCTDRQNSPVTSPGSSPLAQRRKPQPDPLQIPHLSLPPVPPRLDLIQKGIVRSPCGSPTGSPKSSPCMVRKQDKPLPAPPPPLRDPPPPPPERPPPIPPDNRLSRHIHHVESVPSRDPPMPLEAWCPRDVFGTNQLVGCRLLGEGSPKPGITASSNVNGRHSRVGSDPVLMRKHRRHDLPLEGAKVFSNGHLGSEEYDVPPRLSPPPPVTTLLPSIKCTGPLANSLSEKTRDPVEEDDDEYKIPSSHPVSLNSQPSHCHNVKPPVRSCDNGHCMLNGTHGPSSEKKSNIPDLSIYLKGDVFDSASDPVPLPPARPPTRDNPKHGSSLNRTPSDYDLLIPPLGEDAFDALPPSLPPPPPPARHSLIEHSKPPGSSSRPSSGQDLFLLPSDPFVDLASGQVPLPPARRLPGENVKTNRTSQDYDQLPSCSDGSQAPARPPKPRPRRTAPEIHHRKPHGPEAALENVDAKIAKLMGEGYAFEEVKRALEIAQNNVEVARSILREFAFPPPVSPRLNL
quantity: IC50

Which value of IC50 has been reported for CN1CCCC(c2cc(C(F)(F)F)c3cn(-c4cccc(C5(Cc6nncn6C)COC5)c4)c(=O)n3c2)C1 (stereo not drawn) in the records? > 10000 nM

Please give the result for "[2H]C([2H])([2H])n1cnnc1CC1(c2cccc(-n3cc4c(C(F)(F)F)cc([C@@H](C)N5CCO[C@H](C)C5)cn4c3=O)c2)COC1" too. < 100 nM

Please give the result for "Cn1cnnc1[C@@H](c1cccc(-n2cc3c(C(F)(F)F)cc(CN4CC(C(F)(F)F)C4)cn3c2=O)c1)C1CCC1" too. < 100 nM

Please give the result for "C[C@@H]1CN(Cc2cc(C(F)(F)F)c3cn(-c4cccc(N(c5nncn5C)C5CCC5)c4)c(=O)n3c2)CCO1" too. > 10000 nM

Please give the result for "C[C@@H](c1cc(C(F)(F)F)c2cn(-c3cccc(C4(Cc5nncn5C)COC4)c3)c(=O)n2c1)N1CCC(F)CC1" too. < 100 nM

Continue with the molecule presented below.
Which value of IC50 has been reported for Cn1cnnc1[C@@H](c1cccc(-n2cc3c(C(F)(F)F)cc(CN4CC[C@@H](C(F)(F)F)C4)cn3c2=O)c1)C1CCC1 (single isomer, unassigned) in the records? 100 to 300 nM

* * *

target: CBL-B (Homo sapiens, UniProt Q13191); construct: GST; assay: CBL-B TR-FRET IC50 screening (E1/E2 ubiquitination, Biotin-Ubiquitin, Anti GST-Tb donor / Streptavidin-d2 acceptor); type: biochemical; details: CBL-B 10 nM final; 11-point titration from 100 uM; binned A-F; read-out: CBL-B TR-FRET activity IC50
Known IC50 of a selection of compounds

Known results for compounds:
Which value of IC50 has been reported for C[C@H]1CCCN(Cc2cc(C(F)(F)F)c3cn(-c4cc(F)cc([C@H](c5nncn5C)C5CCC5)c4)c(=O)n3c2)C1 (single isomer, unassigned) [Compound 243] in the records? < 100 nM

Please give the result for [2H]C([2H])([2H])n1cnnc1C1(c2cccc(-n3cc4c(C(F)(F)F)cc(CN5CCC[C@H](C)C5)cn4c3=O)c2)CC(C)C1 (single isomer, unassigned) [Compound 189] too. < 100 nM

---
Which value of IC50 has been reported for CC1CC(c2cccc(-n3cc4c(C(F)(F)F)cc(Br)cn4c3=O)c2)(c2nncn2C)C1 (single isomer, unassigned) [Compound 150] in the records? < 100 nM
